test: Maximum plasma concentration in dogs after oral administration (8 mg/kg) as a 0.05 M citric acid solution.; assay type: ADME, organism-based, Canis lupus familiaris; design: dose 8 mg/kg, route oral; settings: dog

smiles_notation: CCCc1cc(CN2CCN(C[C@@H](O)[C@H](Cc3ccccc3)NC(=O)O[C@@H]3CCS(=O)(=O)[C@@H]3C(C)C)[C@H](C(=O)NC(C)(C)C)C2)ccn1
Cmax: 2.3 µM
//
smiles_notation: Cc1cc(CN2CCN(C[C@@H](O)[C@H](Cc3ccccc3)NC(=O)O[C@@H]3CCS(=O)(=O)[C@@H]3C(C)C)[C@H](C(=O)NC(C)(C)C)C2)cc(C)n1
Cmax: 3.6 µM
